- Test system: human Factor 11 mRNA
- measurement-description: Dose-dependent inhibition of human Factor 11 in HepB3 cells, electroporation (Example 7)
- Format: cell-based
- condition-label: 41.15 nM, ~16 hours
metric-name: percent inhibition of human Factor 11 mRNA relative to untreated control cells (%)
Answer format: numeric, % implied, no suffix.

INSERT INTO results (substance, test_target, result_value) VALUES
  ('417003 (antisense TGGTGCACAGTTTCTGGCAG; 2-13-5 gapmer chemistry, further chemistry not given here) [compound 417003]', 'human Factor 11 mRNA', 31),
  ('417002 (antisense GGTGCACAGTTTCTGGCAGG; 2-13-5 gapmer chemistry, further chemistry not given here) [compound 417002]', 'human Factor 11 mRNA', 19),
  ('416825 (antisense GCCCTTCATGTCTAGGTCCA; 5-10-5 gapmer, further chemistry not given here) [compound 416825]', 'human Factor 11 mRNA', 32),
  ('416999 (antisense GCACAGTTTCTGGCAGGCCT; 2-13-5 gapmer chemistry, further chemistry not given here) [compound 416999]', 'human Factor 11 mRNA', 31),
  ('416864 (antisense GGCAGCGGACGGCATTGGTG; 5-10-5 gapmer, further chemistry not given here) [compound 416864]', 'human Factor 11 mRNA', 4);

Moving on to the next substance.
For human Factor 11 mRNA, give percent inhibition of human Factor 11 mRNA relative to untreated control cells of the listed substance: 416858 (antisense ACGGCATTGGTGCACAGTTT; 5-10-5 gapmer, further chemistry not given here) [compound 416858] 23

----------
- measurement-description: Liver function, ALT, AST, bilirubin in cynomolgus monkeys (Example 46)
- Format: in vivo
- condition-label: Day −5; plasma
Strand notation (5' to 3'): a small letter for the sugar, then the base; units joined by * are phosphorothioate-linked, units joined directly phosphodiester-linked; [ ] holds rarer units or linkages, { } end groups; capitals alone tell only the bases. e = 2'-O-(2-methoxyethyl) (MOE); [5mC] = 5-methylcytosine; d = 2'-deoxy (DNA)
Measured ALT accompanies every entry in the list below.
Answer format: numeric, IU/L implied, no suffix.

INSERT INTO measurements (substance, metric_name, result_value) VALUES
  ('ISIS 449710: 3-8-3, 4-8-4, 2-10-2, 3-10-3 or 4-10-4 MOE microwalk gapmer (Table 46) (antisense e[5mC]*eA*e[5mC]*dA*dG*dT*dT*dT*d[5mC]*dT*dG*dG*d[5mC]*eA*eG*eG)', 'ALT', 42),
  ('ISIS 449711: 3-8-3, 4-8-4, 2-10-2, 3-10-3 or 4-10-4 MOE microwalk gapmer (Table 46) (antisense eA*e[5mC]*dA*dG*dT*dT*dT*d[5mC]*dT*dG*dG*d[5mC]*eA*eG)', 'ALT', 137);

Moving on to the next substance.
Write down ALT measured for item ISIS 445531: 5-8-5 or 6-8-6 MOE microwalk gapmer (Table 44) (antisense eG*eG*e[5mC]*eA*eT*dT*dG*dG*dT*dG*d[5mC]*dA*d[5mC]*eA*eG*eT*eT*eT) 73

----------
- measurement-description: Tolerability in CD1 mice: liver function, ALT, AST, bilirubin, albumin (Example 33)
- condition-label: plasma, 50 mg/kg s.c. twice a week, 6 weeks
Measured Bilirubin accompanies every entry in the list below.
Answer format: numeric, mg/dL implied, no suffix.

INSERT INTO measurements (substance, display_unit, result_value) VALUES
  ('ISIS 417002: MOE gapmer, nucleobases 1275 to 1318 of SEQ ID NO: 1 (Table 8) (antisense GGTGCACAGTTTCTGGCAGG; MOE gapmer, wing and gap sizes not given here)', 'mg/dL', 0.29),
  ('ISIS 416850: MOE gapmer, nucleobases 1275 to 1318 of SEQ ID NO: 1 (Table 8) (antisense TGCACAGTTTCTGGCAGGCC; MOE gapmer, wing and gap sizes not given here)', 'mg/dL', 0.22),
  ('ISIS 416858: MOE gapmer, nucleobases 1275 to 1318 of SEQ ID NO: 1 (Table 8) (antisense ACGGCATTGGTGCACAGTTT; MOE gapmer, wing and gap sizes not given here)', 'mg/dL', 0.16),
  ('ISIS 416838: MOE gapmer, nucleobases 1018 to 1042 of SEQ ID NO: 1 (Table 6) (antisense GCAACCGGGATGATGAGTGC; MOE gapmer, wing and gap sizes not given here)', 'mg/dL', 0.20);

Write down Bilirubin measured for item ISIS 416864: MOE gapmer, nucleobases 1275 to 1318 of SEQ ID NO: 1 (Table 8) (antisense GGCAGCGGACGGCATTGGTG; MOE gapmer, wing and gap sizes not given here) 0.22

----------
- measurement-description: Hematology assays in cynomolgus monkeys (Example 46)
- Type: in vivo
- condition-label: Day 45
Strand notation (5' to 3'): a small letter for the sugar, then the base; units joined by * are phosphorothioate-linked, units joined directly phosphodiester-linked; [ ] holds rarer units or linkages, { } end groups; capitals alone tell only the bases. e = 2'-O-(2-methoxyethyl) (MOE); [5mC] = 5-methylcytosine; d = 2'-deoxy (DNA)
metric-name: MCHC

INSERT INTO assay_data (substance, metric_name, result_value) VALUES
  ('ISIS 416858: MOE gapmer, nucleobases 1275 to 1318 of SEQ ID NO: 1 (Table 8) (antisense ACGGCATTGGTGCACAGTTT; MOE gapmer, wing and gap sizes not given here)', 'MCHC', '30.3 g/dL'),
  ('ISIS 449709: 3-8-3, 4-8-4, 2-10-2, 3-10-3 or 4-10-4 MOE microwalk gapmer (Table 46) (antisense eG*e[5mC]*eA*e[5mC]*dA*dG*dT*dT*dT*d[5mC]*dT*dG*dG*d[5mC]*eA*eG*eG*e[5mC])', 'MCHC', '31.1 g/dL');

Write down MCHC measured for item ISIS 449707: 3-8-3, 4-8-4, 2-10-2, 3-10-3 or 4-10-4 MOE microwalk gapmer (Table 46) (antisense e[5mC]*eA*e[5mC]*eA*dG*dT*dT*dT*d[5mC]*dT*dG*dG*e[5mC]*eA*eG*eG) 29.8 g/dL

Write down MCHC measured for item ISIS 416850: MOE gapmer, nucleobases 1275 to 1318 of SEQ ID NO: 1 (Table 8) (antisense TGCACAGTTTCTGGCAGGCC; MOE gapmer, wing and gap sizes not given here) 31.0 g/dL

----------
Measured RBC count accompanies every entry in the list below.
- measurement-description: Hematology assays in cynomolgus monkeys (Example 46)
- Assay type: in vivo
- condition-label: Day 31
- Protocol: Groups, each consisting of two male and two female monkeys, were injected subcutaneously with 25 mg/kg of ISIS 416850, ISIS 449709, ISIS 445522, ISIS 449710, ISIS 449707, ISIS 449711, ISIS 449708, 416858, and ISIS 445531. […] Body weights were taken 14 days and 7 days before the start of treatment and were then measured weekly throughout the treatment period. […]
Strand notation (5' to 3'): a small letter for the sugar, then the base; units joined by * are phosphorothioate-linked, units joined directly phosphodiester-linked; [ ] holds rarer units or linkages, { } end groups; capitals alone tell only the bases. e = 2'-O-(2-methoxyethyl) (MOE); [5mC] = 5-methylcytosine; d = 2'-deoxy (DNA)
Answer format: numeric, µL⁻¹ implied, no suffix.

Consider the worked cases shown below.
INSERT INTO assay_data (substance, result_value) VALUES
  ('ISIS 449708: 3-8-3, 4-8-4, 2-10-2, 3-10-3 or 4-10-4 MOE microwalk gapmer (Table 46) (antisense eA*e[5mC]*eA*dG*dT*dT*dT*d[5mC]*dT*dG*dG*e[5mC]*eA*eG)', '5.8e+06'),
  ('ISIS 416850: MOE gapmer, nucleobases 1275 to 1318 of SEQ ID NO: 1 (Table 8) (antisense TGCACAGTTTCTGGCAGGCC; MOE gapmer, wing and gap sizes not given here)', '5.6e+06'),
  ('ISIS 416858: MOE gapmer, nucleobases 1275 to 1318 of SEQ ID NO: 1 (Table 8) (antisense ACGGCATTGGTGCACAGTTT; MOE gapmer, wing and gap sizes not given here)', '5.6e+06'),
  ('ISIS 449710: 3-8-3, 4-8-4, 2-10-2, 3-10-3 or 4-10-4 MOE microwalk gapmer (Table 46) (antisense e[5mC]*eA*e[5mC]*dA*dG*dT*dT*dT*d[5mC]*dT*dG*dG*d[5mC]*eA*eG*eG)', '5.8e+06'),
  ('ISIS 449707: 3-8-3, 4-8-4, 2-10-2, 3-10-3 or 4-10-4 MOE microwalk gapmer (Table 46) (antisense e[5mC]*eA*e[5mC]*eA*dG*dT*dT*dT*d[5mC]*dT*dG*dG*e[5mC]*eA*eG*eG)', '5.7e+06'),
  ('ISIS 449709: 3-8-3, 4-8-4, 2-10-2, 3-10-3 or 4-10-4 MOE microwalk gapmer (Table 46) (antisense eG*e[5mC]*eA*e[5mC]*dA*dG*dT*dT*dT*d[5mC]*dT*dG*dG*d[5mC]*eA*eG*eG*e[5mC])', '5.9e+06'),
  ('ISIS 445522: 5-8-5 or 6-8-6 MOE microwalk gapmer (Table 44) (antisense eG*e[5mC]*eA*e[5mC]*eA*dG*dT*dT*dT*d[5mC]*dT*dG*dG*e[5mC]*eA*eG*eG*e[5mC])', '5.8e+06'),
  ('ISIS 449711: 3-8-3, 4-8-4, 2-10-2, 3-10-3 or 4-10-4 MOE microwalk gapmer (Table 46) (antisense eA*e[5mC]*dA*dG*dT*dT*dT*d[5mC]*dT*dG*dG*d[5mC]*eA*eG)', '5.4e+06');

Moving on to the next substance.
Write down RBC count measured for item ISIS 445531: 5-8-5 or 6-8-6 MOE microwalk gapmer (Table 44) (antisense eG*eG*e[5mC]*eA*eT*dT*dG*dG*dT*dG*d[5mC]*dA*d[5mC]*eA*eG*eT*eT*eT) 5.6e+06
